Below, each entry is listed alongside its reported pKd.
- Assay target: GRASP, Q7Z6J2
- Sequence (Q7Z6J2 96-193): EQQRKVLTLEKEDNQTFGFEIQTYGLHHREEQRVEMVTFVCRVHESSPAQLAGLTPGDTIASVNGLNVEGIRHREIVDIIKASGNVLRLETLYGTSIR
- Assay protocol: holdup assay
- Parameters: key: below the threshold = too weak to quantify, mostly under pKd 3.1 to 4
- Cond: plain residues with an end cap or a label only (N-terminal biotin on a linker: ado-ado)
Assay endpoint: pKd

1. NISARRFTLC [FAM167B, Q9BTA0] ... 4.36
2. MQILSKPEFI [NPSR1, Q6W5P4] ... 3.68
3. SKQFDKNAYV [CLDN10, P78369] ... 3.56
4. EFKQTSSFLV [JAM1, Q9Y624] ... 3.56
5. FHSIKQSTAV [CRHR1, P34998] ... 4.72
6. VKQYADVEGF [HNRNPK, P61978] ... 3.76
7. PSVYSRSQYV [CLDN8, P56748] ... 3.51

All values here come from paper PMC9482650.
